# protein stability index per record follows
assay_text: protein stability index of a GFP-peptide fusion (yeast GPS) (PSI 1-4); higher = more stable; sorted into four equal gates, so the index is relative within each strain
experimental_conditions: pdr5∆
Answer field: number only, no words.

Which value of protein stability index has been reported for LDNKGSGEDAEEELWNS [YIL149C/MLP2] in the records?
2.92

Looking for the measured protein stability index of VLGNSRGVDAGKGNTFE [RPN14] , can you help?
3.01

Please find the next sequence below.
Sample FLKEVLSDLSSPVQDWN [YML103C/NUP188] — what was its protein stability index?
3.03

###

assay_text: protein stability index of a GFP-peptide fusion (yeast GPS) (PSI 1-4); higher = more stable; sorted into four equal gates, so the index is relative within each strain
experimental_conditions: san1∆
value_type: protein stability index
Write no unit; give the number alone.

Consider the reported protein stability index for these sequences:
What does the data say about its protein stability index? Entry: SDNSEEEEVDIDMDKLN [RRP43]
3.4

Form field: reported protein stability index of EKYGKQVYDLLKRFPKM [BRR2]
2.99

What value of measured protein stability index is listed for YYEQFRPDLIKEDHPLE [SIR3] ?
3.02

API: the following record is the query input.
Item TVRKSIACVLTVINEQQ [RPL35A] has what recorded protein stability index?
2.21

###

Below, each entry is listed alongside its reported protein stability index.
assay_text: protein stability index of a GFP-peptide fusion (yeast GPS) (PSI 1-4); higher = more stable; sorted into four equal gates, so the index is relative within each strain
experimental_conditions: san1∆

Below, each entry is followed by its recorded protein stability index result.
# query: protein stability index of entry FVSYFGKQIKSTIYNWG [YML103C/NUP188]
1.47

Fill blank: measured protein stability index of the sequence QSISGTLELSAQFRVPR [SWP82] is ____.
2.52

Look up protein stability index for this sequence: LKKNNYNSFPHSNLEKI [SIR4]
3.19

***
For the sequence NIIESIANFSRAGKYEL [YJR042W/NUP85] , what protein stability index is on record?
2.87

Request the reported protein stability index associated with LKQDLKKISSFKSLIDE [YGL172W/NUP49]
3.08

Would you mind telling me what protein stability index value was observed for MARRPARCYRYQKNKPY [RPL10] ?
2.32

###

Listed next: entries and their corresponding protein stability index.
assay_text: protein stability index of a GFP-peptide fusion (yeast GPS) (PSI 1-4); higher = more stable; sorted into four equal gates, so the index is relative within each strain
experimental_conditions: doa10∆
// response body must contain only the number

Request the reported protein stability index associated with MSTELTVQSERAFQKQP [RPS11A]
3.13

Endpoint output: protein stability index of FQTIFSKQDLIHSLIPV [SIN4] . Value?
1.93

Look at this sequence and give its reported protein stability index. IKIEDFVDDMLRDYRFE [SNF5]
3

What value of measured protein stability index is listed for SRNFSTRDEETTKLAFL [SIR4] ?
3.04

Would you mind telling me what protein stability index value was observed for NLGEYYAQIGDKDNAEK [RPN7] ?
1.92

Endpoint output: protein stability index of NNNSSNEKEQLSFINPK [SEC65] . Value?
2.83

Query (sequence): STFREWKNLVLKLSQAF [YJR042W/NUP85] ; field requested: protein stability index
2.85

Which protein stability index reading was recorded for the sequence RALSIFSPDGHIFQVEY [PRE6] ?
2.97

Continuing:
Bench note: what protein stability index did YIHRIGRTGRAANEGTA [PRP28] show?
3.1

Request the reported protein stability index associated with DVLINELLDQVTLGREG [CDC53]
3.06

# lookup: protein stability index of LKKVQQQQQAAALANAN [SWI1]
1.83

Query: protein stability index; subject: ETLEHNPVALEQKLVDL [BRR2]
2.15

I am curious: what protein stability index value has been reported for QIIRLFYSKNRLLITGT [ISW2] ?
2.55

###

assay_text: protein stability index of a GFP-peptide fusion (yeast GPS) (PSI 1-4); higher = more stable; sorted into four equal gates, so the index is relative within each strain
experimental_conditions: doa10∆
value_type: protein stability index
Returns: the value as a bare number; no unit string appended.

Below: 3 sequences and their reported protein stability index.
Look up protein stability index for this sequence: DVDPIELVVFLPALCKK [RPL8A]
2.78

Item under review: RRKTTKQNSSSDINQND [YDL088C/ASM4] . Reported protein stability index?
3.16

Using the record for TGAGAFGTGQSTFGFNN [YJL041W/NSP1] , report its protein stability index.
2.72

***
Given the entry LSLTLNTHYHADYRLIL [SNF2] , report its measured protein stability index.
2.83

Given the entry SVSSPIELNFDAVKDFK [QCR2] , report its measured protein stability index.
1.89

Consider the sequence shown here: TGYDLSNSVFSPDGRNF [PRE10] What is its recorded protein stability index?
2.79

Fill in: protein stability index of DQWYCIDKLEDLSRIMD [ITC1] is ___
2.65

For the sequence ISLYFNDILDELLCGMA [ECM29] , what protein stability index is on record?
1.64

Consider the sequence shown here: NSRGKFDDACNQIWNIA [SSN2] What is its recorded protein stability index?
3.04

Would you kindly share the measured protein stability index for RQRELLIAHQRSAWNNN [GRR1] ?
1.94

Need protein stability index, item RPLKLERGFACIPLVGI [FAS1]
1.69

Tell me the measured protein stability index of TPAELVGKFLGYVSSLV [FAS1] , please.
1.93

Which protein stability index is listed for LAIKDSKKRFAAIWTLC [RPO21] ?
1.9

Look up protein stability index: PKFFLGEENRVRFIGDS [QCR2]
3.17

Which value of protein stability index has been reported for LLISLNILFSLWKLLST [YLR018C/POM34] in the records?
1.63

Returns the measured protein stability index for the input sequence. Input: NINNSSVAEKEEIRSQI [SWI3]
2.64

For TQSYNNQNTLKEISARR [POP1] , what is its reported protein stability index?
2.29

Request the reported protein stability index associated with ITSIPKPLTENCKKKKK [RMP1]
2.84

Looking for the measured protein stability index of IPIGHVHVIHFQHADNS [AAR2] , can you help?
2.86

Endpoint output: protein stability index of QRGEDDLTFKLADILKA [RPO21] . Value?
2.34

I would be grateful if you could share the reported protein stability index for FVSSGFDTSIKLDIISD [RPN14] .
2.39

Value lookup for protein stability index; key = NEKMQLLKDIFANNLKS [SIR4]
2.28

###

assay_text: protein stability index of a GFP-peptide fusion (yeast GPS) (PSI 1-4); higher = more stable; sorted into four equal gates, so the index is relative within each strain
experimental_conditions: pdr5∆
I would appreciate it if you labelled entries yes when protein stability index is 3 or higher, otherwise no.

As a guide, the following entries are already answered.
Does the reported protein stability index for GTANNNSNTTNQNSSTG [YJL041W/NSP1] fall at or above the 3 mark?
yes

API: above_or_equal(metric=protein stability index, cutoff=3) for item PFHDPEARLFNIWGTVR [ECM29]
no

Textbook exercise: given the entry ASVRIKDKFNQIPLHRA [NAS6] , state whether its protein stability index is greater than or equal to 3.
no

Next:
Item FVSNMGFDIQKSCEPVS [SIR4] with protein stability index of 3 or above?
no

###

assay_text: protein stability index of a GFP-peptide fusion (yeast GPS) (PSI 1-4); higher = more stable; sorted into four equal gates, so the index is relative within each strain
experimental_conditions: pdr5∆
Reported protein stability index values for the following sequences.
The response must contain the number and no unit.

These recorded examples may help you get a feel for the data.
Entry RHNKSHTLCNRCGRRSF [RPL37A] has what protein stability index?
3.18

Which protein stability index reading was recorded for the sequence VQLRYGDYDSHDISRYV [PRP8] ?
2.46

Query: protein stability index; subject: IWLIKCCYFIEWKSNHK [SRB8]
2.12

I have this sequence here, PGHSLLLSIKLPGKVNT [SNF5] , and I need its recorded protein stability index.
1.77

# input sequence: AFLSKVPEFFQTANEKH [SRP14] ; wanted: its protein stability index
3.21

Could you tell me which protein stability index is on file for TLPSVGHTLINNYKDLL [RPP0] ?
3.34

Look at this sequence and give its reported protein stability index. NLNTDKLKNNASRSQLE [YJL039C/NUP192]
2.69

For QIPQQLYQSLTPQQLQM [SNF5] , what is its reported protein stability index?
2.7

What protein stability index value was documented for this sequence, MDSKGKITIGIQRTTES [RGR1] ?
3.39

# get_value(readout='protein stability index', item= DHKRFIVFHNEFSEHTF [DIS3] )
2.92

Others:
Which protein stability index value is on record for SDKQRRLLAKDAMIAQR [DIS3] ?
2.48

Would you mind telling me what protein stability index value was observed for QFSYLSSTLGIDLEDIK [PCI8] ?
2.23

Looking for the measured protein stability index of LEYNVALNDVYLDADVA [YML031W/NDC1] , can you help?
3.33

Entry under review: GAMTPEEIFFKSVRILK [RPC40] . Reported protein stability index?
3.28
